Target: binding partner (antigen) of C5A (XPA23)
Experiment: Biacore, K-off, fold vs original
assay_metric: fold difference in affinity vs original
Report as: number unit

Form field fold difference in affinity vs original, entry C5A (XPA23) VH V50A (antibody, V domains shown) VH: EVQLLESGGGLVQPGGSLRLSCAASGFTFSKYFMFWVRQAPGKGLEWVSAISPSGGMTRYADSVKGRFTISRDNSKNTLYLQMNSLRAEDTAVYYCARVGYGGNSDYWGQGTLVTVSS VL: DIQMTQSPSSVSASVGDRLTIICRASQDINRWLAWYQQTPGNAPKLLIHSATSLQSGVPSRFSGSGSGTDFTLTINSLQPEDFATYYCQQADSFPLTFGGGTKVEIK : 0.09 fold

Form field fold difference in affinity vs original, entry C5A (XPA23) VH N104V (antibody, V domains shown) VH: EVQLLESGGGLVQPGGSLRLSCAASGFTFSKYFMFWVRQAPGKGLEWVSVISPSGGMTRYADSVKGRFTISRDNSKNTLYLQMNSLRAEDTAVYYCARVGYGGVSDYWGQGTLVTVSS VL: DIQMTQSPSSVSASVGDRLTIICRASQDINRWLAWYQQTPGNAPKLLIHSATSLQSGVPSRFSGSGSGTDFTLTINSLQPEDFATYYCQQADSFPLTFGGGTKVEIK : 1.27 fold

Form field fold difference in affinity vs original, entry C5A (XPA23) VH S54W (antibody, V domains shown) VH: EVQLLESGGGLVQPGGSLRLSCAASGFTFSKYFMFWVRQAPGKGLEWVSVISPWGGMTRYADSVKGRFTISRDNSKNTLYLQMNSLRAEDTAVYYCARVGYGGNSDYWGQGTLVTVSS VL: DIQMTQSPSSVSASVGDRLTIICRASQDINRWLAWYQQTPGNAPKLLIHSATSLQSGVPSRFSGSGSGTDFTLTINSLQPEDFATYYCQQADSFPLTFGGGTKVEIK : 1.07 fold

Form field fold difference in affinity vs original, entry C5A (XPA23) VH Y107G (antibody, V domains shown) VH: EVQLLESGGGLVQPGGSLRLSCAASGFTFSKYFMFWVRQAPGKGLEWVSVISPSGGMTRYADSVKGRFTISRDNSKNTLYLQMNSLRAEDTAVYYCARVGYGGNSDGWGQGTLVTVSS VL: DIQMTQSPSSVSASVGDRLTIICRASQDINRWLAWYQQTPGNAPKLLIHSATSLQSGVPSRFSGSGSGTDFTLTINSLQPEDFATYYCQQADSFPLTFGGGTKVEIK : 0.1 fold

Form field fold difference in affinity vs original, entry C5A (XPA23) VH G56F (antibody, V domains shown) VH: EVQLLESGGGLVQPGGSLRLSCAASGFTFSKYFMFWVRQAPGKGLEWVSVISPSGFMTRYADSVKGRFTISRDNSKNTLYLQMNSLRAEDTAVYYCARVGYGGNSDYWGQGTLVTVSS VL: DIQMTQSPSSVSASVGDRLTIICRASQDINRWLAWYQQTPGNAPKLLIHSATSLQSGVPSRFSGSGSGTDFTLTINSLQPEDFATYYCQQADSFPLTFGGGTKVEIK : 1.41 fold
